The reported numbers originate from patent US12180207B2.

TESTED_TARGET: recombinant human FGFR2 cytoplasmic domain (amino acids 403-822) (Homo sapiens (Human), UniProt P21802)
Sequence (P21802 402-821): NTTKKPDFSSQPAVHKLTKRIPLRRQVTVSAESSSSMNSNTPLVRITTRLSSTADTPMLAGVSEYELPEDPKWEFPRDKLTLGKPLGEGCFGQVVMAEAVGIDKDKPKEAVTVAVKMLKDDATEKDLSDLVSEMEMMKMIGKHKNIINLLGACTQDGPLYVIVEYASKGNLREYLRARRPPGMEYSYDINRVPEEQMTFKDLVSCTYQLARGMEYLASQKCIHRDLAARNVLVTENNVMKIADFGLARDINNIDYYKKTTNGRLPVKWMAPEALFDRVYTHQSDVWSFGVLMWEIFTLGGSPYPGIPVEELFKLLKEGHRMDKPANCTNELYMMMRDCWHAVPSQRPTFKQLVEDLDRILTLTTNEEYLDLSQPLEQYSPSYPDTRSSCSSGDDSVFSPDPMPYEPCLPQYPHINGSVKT
PROTOCOL_SUMMARY: FGFR2 enzyme activity assay (LanthaScreen TR-FRET)
ASSAY_CONTEXT: 15 μM ATP, 20 min incubation at 22° C., average of multiple determinations if made, read-out: FGFR2 Enz FRET IC50
pIC50: −log10 of the molar value.
REPORTED_METRIC: pIC50

Consider the following illustrative entries.
C=CC(=O)N1CCC(C(=O)N2CC[C@@H](n3cc(-c4cc(OC)c5c(C#N)cnn5c4)cn3)C2)CC1 [Example 53] ... 8.15
C=CC(=O)N1CC(F)(C(=O)N2CCN(c3ccc(-c4cc(OC)c5c(C#N)cnn5c4)cn3)CC2)C1 [Example 112] ... 8.05

[1] C=CS(=O)(=O)N1CC(C(=O)N2CCC(n3cc(-c4cc(OC)c5c(C#N)cnn5c4)cn3)CC2)C1 [Example 192]
[2] C=CC(=O)N1CC(F)(C(=O)N2CCC(n3ncc(-c4cc(OC)c5c(C#N)cnn5c4)c3CC)CC2)C1 [Example 96]
Input pair: 1 , 2 . Output: entry with lower pIC50. # answer = label of selected item
2
(2: 6.81, 1: 8.05)

* * *

TESTED_TARGET: FGFR3 (SEQ ID NO: 5, amino acids 449-759) (Homo sapiens (Human))
Sequence (P22607 449-759): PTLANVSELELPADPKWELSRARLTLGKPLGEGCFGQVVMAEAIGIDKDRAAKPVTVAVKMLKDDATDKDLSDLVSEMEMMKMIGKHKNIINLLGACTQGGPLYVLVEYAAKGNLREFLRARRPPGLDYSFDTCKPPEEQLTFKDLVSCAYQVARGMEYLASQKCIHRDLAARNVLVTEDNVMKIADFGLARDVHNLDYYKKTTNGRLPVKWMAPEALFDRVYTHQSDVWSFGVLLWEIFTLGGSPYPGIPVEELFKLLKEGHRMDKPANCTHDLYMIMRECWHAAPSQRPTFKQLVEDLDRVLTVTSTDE
PROTOCOL_SUMMARY: LC/MS FGFR3 kobs assay (covalent protein modification)
Format: binding
ASSAY_CONTEXT: 500 nM FGFR3, 3 μM compound
REPORTED_METRIC: FGFR3 Enz kobs (min⁻¹)

Consider the following illustrative entries.
C=CC(=O)N1CCC(C#N)(C(=O)N2CCC(n3cc(-c4cc(OC)c5c(C#N)cnn5c4)cn3)CC2)C1 (stereo not shown) ... 0.02377
C=CC(=O)N1CC(C(=O)N2CCN(c3ncc(-c4cc(OC)c5c(C#N)cnn5c4)cc3C)CC2)C1 ... 0.02175

[A] C=CC(=O)N1CC(C)(CN2CCC(n3ncc(-c4cc(OC)c5c(C#N)cnn5c4)c3C)CC2)C1
[B] C=CC(=O)N1CC(C(=O)N2CC3(C2)CN(c2ccc(-c4cc(OC)c5c(C#N)cnn5c4)cn2)C3)C1
[C] C=CS(=O)(=O)N1CCC(C(=O)N2CCC(n3cc(-c4cc(OC)c5c(C#N)cnn5c4)cn3)CC2)CC1
Arrange the 3 compounds from largest to smallest FGFR3 Enz kobs. I'd appreciate it if you listed the labels in the requested order.
C, B, A
(C: 0.08793 min⁻¹, B: 0.03006 min⁻¹, A: 0.01468 min⁻¹)

* * *

TESTED_TARGET: FGFR1 (SEQ ID NO: 1, amino acids 458-765) (Homo sapiens (Human), UniProt P11362)
Sequence (P11362 458-765): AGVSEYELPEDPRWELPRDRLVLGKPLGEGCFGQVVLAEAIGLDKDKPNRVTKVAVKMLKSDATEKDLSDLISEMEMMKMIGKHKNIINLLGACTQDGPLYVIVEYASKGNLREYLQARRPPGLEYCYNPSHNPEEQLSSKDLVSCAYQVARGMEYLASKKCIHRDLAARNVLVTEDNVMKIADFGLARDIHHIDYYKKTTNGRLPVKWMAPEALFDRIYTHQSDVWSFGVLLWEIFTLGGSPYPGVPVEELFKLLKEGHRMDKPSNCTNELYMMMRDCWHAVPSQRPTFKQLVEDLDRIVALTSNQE
PROTOCOL_SUMMARY: LC/MS FGFR1 kobs assay (covalent protein modification)
Assay type: binding
ASSAY_CONTEXT: 500 nM FGFR1, 3 μM compound
REPORTED_METRIC: FGFR1 Enz kobs (min⁻¹)

Consider the following illustrative entries.
C=CC(=O)N1C[C@H]2C[C@@H]1CN2C(=O)N1CCC(n2cc(-c3cc(OC)c4c(C#N)cnn4c3)cn2)CC1 [Example 5] ... 0.00047
C=CC(=O)N1CC2CC(C1)N2C(=O)N1CCC(n2cc(-c3cc(OC)c4c(C#N)cnn4c3)cn2)CC1 [Example 4] ... 0.00052
C=CC(=O)N1CC(OC)(C(=O)N2CCC(n3ncc(-c4cc(OC)c5c(C#N)cnn5c4)c3C)CC2)C1 [Example 88] ... 0.00646
C=CC(=O)Nc1ccc(C(=O)N2CC[C@H](n3cc(-c4cc(OC)c5c(C#N)cnn5c4)cn3)C2)cc1OC [Example 71] ... 0.00457

[a] C=CC(=O)Nc1ccc(CN2CCC(n3cc(-c4cc(OC)c5c(C#N)cnn5c4)cn3)CC2)cc1 [Example 9]
[b] C=CC(=O)N1CCC(F)(C(=O)N2CCC(n3cc(-c4cc(OC)c5c(C#N)cnn5c4)cn3)CC2)CC1 [Example 13]
[c] C=CC(=O)N1CC(C(=O)N2CCC(c3ccc(-c4cc(OC)c5c(C#N)cnn5c4)cc3)CC2)C1 [Example 101]
Sort entries by FGFR1 Enz kobs from minimum to maximum value. I'd appreciate it if you listed the labels in the requested order.
b, c, a
(b: 0.00056 min⁻¹, c: 0.00223 min⁻¹, a: 0.0059 min⁻¹)

* * *

The following are reported IC50 results, target or system UniProt P11362.
REPORTED_METRIC: IC50 (nM)

Consider the following illustrative entries.
C=CS(=O)(=O)N1CCC(C(=O)N2CCC(n3cc(-c4cc(OC)c5c(C#N)cnn5c4)cn3)CC2)CC1 [Example 186] ... 14
C=CC(=O)NC1CCC(NC(=O)c2ccc(-c3cc(OC)c4c(C#N)cnn4c3)cc2)CC1 (centres unmarked) [Example 167] ... 1120
C=CC(=O)N1CC(O)(C(=O)N2CCC(n3ncc(-c4cc(OC)c5c(Cl)cnn5c4)c3C)CC2)C1 [Example 172] ... 922
C=CC(=O)N1CCC[C@@H](C(=O)N2CC[C@H](n3cc(-c4cc(OC)c5c(C#N)cnn5c4)cn3)C2)C1 [Example 64] ... 94
C=CC(=O)N1CC[C@H](C(=O)N2CC(n3cc(-c4cc(OC)c5c(C#N)cnn5c4)cn3)C2)C1 [Example 76] ... 409

[a] COc1cc(-c2cnn(C3CCN(CC4(OC)CN(C(=O)/C=C/CN(C)C)C4)CC3)c2C)cn2ncc(C#N)c12 [Example 159]
[b] C=CC(=O)N1CC(F)(C(=O)N2CCC(n3ncc(-c4cc(OC)c5c(C#N)cnn5c4)c3CC)CC2)C1 [Example 96]
[c] C=CC(=O)N1CC(OC)(C(=O)N2CCC(n3nc(C)c(-c4cc(OC)c5c(C#N)cnn5c4)c3C)CC2)C1 [Example 95]
[d] COc1cc(-c2cnn(C3CCN(C(=O)C4CN(C(=O)/C=C/CN(C)C)C4)CC3)c2C)cn2ncc(C#N)c12 [Example 152]
[e] C=CC(=O)N1CC(C(=O)N2CCC(n3cc(-c4cc(-c5ccc(NC(=O)C6CC6)cc5F)c5c(C#N)cnn5c4)cn3)CC2)C1 [Example 130]
Arrange the 5 molecules from largest to smallest IC50. I'd appreciate it if you listed the labels in the requested order.
b, c, d, a, e
(b: 1620 nM, c: 675 nM, d: 320 nM, a: 144 nM, e: 7 nM)

[I] C=CC(=O)N1CC2(CC(C(=O)N3CCC(n4cc(-c5cc(OC)c6c(C#N)cnn6c5)cn4)CC3)C2)C1 [Example 47]
[II] C=CC(=O)N1CC(C(=O)N2CCN(c3ncc(-c4cc(OC)c5c(C#N)cnn5c4)cc3C)CC2)C1 [Example 113]
Input pair: I , II . Output: entry with lower IC50. # answer = label of selected item
I

[P] C=CC(=O)N1CC(CN2CCC(n3ncc(-c4cc(OC)c5c(C#N)cnn5c4)c3C)CC2)C1(C)C (centres unmarked) [Example 151]
[Q] COc1cc(-c2cnn(C3CCN(C(=O)C4CN(C(=O)/C=C/CN(C)C)C4)CC3)c2)cn2ncc(C#N)c12 [Example 143]
Input pair: P , Q . Output: entry with lower IC50. # answer = label of selected item
Q

* * *

TESTED_TARGET: HEK-293 cells transfected with dox-inducible human wild type FGFR1 (Homo sapiens (Human))
Sequence (P11362 22-822): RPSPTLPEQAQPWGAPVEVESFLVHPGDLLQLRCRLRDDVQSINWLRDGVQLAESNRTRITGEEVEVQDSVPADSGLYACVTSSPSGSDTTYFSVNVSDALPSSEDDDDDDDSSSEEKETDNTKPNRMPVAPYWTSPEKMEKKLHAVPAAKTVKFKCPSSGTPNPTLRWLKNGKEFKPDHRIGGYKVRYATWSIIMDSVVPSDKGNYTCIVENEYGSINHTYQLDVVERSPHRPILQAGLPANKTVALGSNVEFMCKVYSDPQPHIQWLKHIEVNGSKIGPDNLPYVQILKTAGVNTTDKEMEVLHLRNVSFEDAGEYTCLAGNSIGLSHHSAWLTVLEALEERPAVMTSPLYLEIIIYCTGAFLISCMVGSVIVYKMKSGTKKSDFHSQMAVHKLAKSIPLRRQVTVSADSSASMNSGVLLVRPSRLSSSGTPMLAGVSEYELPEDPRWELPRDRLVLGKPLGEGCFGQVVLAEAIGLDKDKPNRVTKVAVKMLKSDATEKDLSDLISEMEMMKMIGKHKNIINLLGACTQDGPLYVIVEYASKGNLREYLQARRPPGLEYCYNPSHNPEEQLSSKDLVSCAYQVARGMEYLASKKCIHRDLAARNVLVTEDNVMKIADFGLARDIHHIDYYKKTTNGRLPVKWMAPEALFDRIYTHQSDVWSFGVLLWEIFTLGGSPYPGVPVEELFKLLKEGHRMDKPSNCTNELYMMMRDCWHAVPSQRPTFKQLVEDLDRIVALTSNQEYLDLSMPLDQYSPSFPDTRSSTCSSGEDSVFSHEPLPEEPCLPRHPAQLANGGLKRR
PROTOCOL_SUMMARY: FGFR1 pERK cell assay
Format: cell-based
ASSAY_CONTEXT: HEK-293 dox-inducible FGFR1, 1 hour compound, 100 ng/ml FGF-acidic; maximum concentration 5 μM
REPORTED_METRIC: IC50 (nM)

C=CC(=O)N1CC(CN2CCC(n3ncc(-c4cc(OC)c5c(Cl)cnn5c4)c3C)CC2)C1 ... 674
COc1cc(-c2cnn(C3CCN(C(=O)C4(F)CN(C(=O)/C=C/CN(C)C)C4)CC3)c2C)cn2ncc(C#N)c12 ... 2
C=CC(=O)N1CC(C(=O)N2CCC(n3cc(-c4cc(OC)c5c(C#N)cnn5c4)cn3)CC2)C1(C)C (stereo not shown) ... 428

[P] COc1cc(-c2cnn(C3CCN(C(=O)C4CN(C(=O)/C=C/CBr)C4)CC3)c2)cn2ncc(C#N)c12
[Q] C=CC(=O)N1CC(C(=O)N2CCC(n3cc(-c4cc(OC)c5c(C#N)cnn5c4)c(C)n3)CC2)C1
P or Q : whose IC50 is greater? # answer = label of selected item
Q
(Q: 4500 nM, P: 130 nM)

* * *

TESTED_TARGET: recombinant human FGFR1 catalytic domain (amino acids 308-731) (Homo sapiens (Human), UniProt P11362)
Sequence (P11362 other isoform, or with tags, fused parts or gaps): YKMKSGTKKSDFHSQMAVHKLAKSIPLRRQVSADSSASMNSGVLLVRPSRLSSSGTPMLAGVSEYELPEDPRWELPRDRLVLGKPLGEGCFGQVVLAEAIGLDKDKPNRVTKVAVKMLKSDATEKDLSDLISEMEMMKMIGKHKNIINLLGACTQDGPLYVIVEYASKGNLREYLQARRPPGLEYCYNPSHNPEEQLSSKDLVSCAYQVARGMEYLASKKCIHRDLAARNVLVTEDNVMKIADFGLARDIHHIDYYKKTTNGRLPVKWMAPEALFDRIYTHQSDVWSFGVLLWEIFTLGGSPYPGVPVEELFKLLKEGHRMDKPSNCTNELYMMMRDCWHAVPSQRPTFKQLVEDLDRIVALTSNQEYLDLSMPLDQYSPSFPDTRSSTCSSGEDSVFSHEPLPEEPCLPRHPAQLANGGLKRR
PROTOCOL_SUMMARY: FGFR1 enzyme activity assay (LanthaScreen TR-FRET)
ASSAY_CONTEXT: 20 min incubation at 22° C., average of multiple determinations if made, read-out: FGFR1 Enz FRET IC50
pIC50: −log10 of the molar value.
REPORTED_METRIC: pIC50

Consider the following illustrative entries.
C=CC(=O)Nc1ccc(C(=O)N2CC[C@H](n3cc(-c4cc(OC)c5c(C#N)cnn5c4)cn3)C2)c(C)c1 ... 8.22
COc1cc(-c2cnn(C3CN(C(=O)C4(F)CN(C(=O)/C=C/CN(C)C)C4)C3)c2C)cn2ncc(C#N)c12 ... 6.61
COc1cc(-c2nnn(C3CCN(C(=O)C4(F)CN(C(=O)/C=C/CN(C)C)C4)CC3)c2C)cn2ncc(C#N)c12 ... 6.99
C=CC(=O)N1CC(C(=O)N2CCC(n3cc(-c4cc(OC(C)C)c5c(C#N)cnn5c4)cn3)CC2)C1 ... 8.15
C=CC(=O)Nc1ccc(C(=O)N2CC[C@@H](n3cc(-c4cc(OC)c5c(C#N)cnn5c4)cn3)C2)cc1 ... 7.72

[P] C=CC(=O)N1CC(C(=O)N2CCC(n3cnc(-c4cc(OC)c5c(C#N)cnn5c4)c3)CC2)C1
[Q] C=CC(=O)N1CC(C(=O)N2CC[C@@H](n3cc(-c4cc(OC)c5c(C#N)cnn5c4)cn3)C2)C1
Input pair: P , Q . Output: entry with lower pIC50. # answer = label of selected item
Q
